Examples of compounds with documented TGI follow.
Test system: NCI-H23 lung
Test Summary: NCI tumour cell line growth inhibition, 48 h
Measure: TGI

>>> meas_value("Cc1cc(C)nc(NS(=O)(=O)c2ccc(Nc3c4ccccc4nc4c(C(=O)NCCN(C)C)cccc34)cc2)n1")
"21.5 µM"
>>> meas_value("COc1ccccc1C(=O)N(Cc1ccccc1)c1ccc(Cl)c(C(=O)OC(C)C)c1")
"> 82.8 µM"
>>> meas_value("NC(=O)[N+](=CC(=S)Nc1ccccc1Cl)C(N)=O")
"> 100 µM"
>>> meas_value("CCOC(=O)c1nc2ccc(C(F)(F)F)cc2nc1Nc1ccc(OC)cc1")
"> 100 µM"
>>> meas_value("O=c1c(Sc2c(SCSc3cnc4ccccc4c3Sc3c[nH]c4ccccc4c3=O)cnc3ccccc23)c[nH]c2ccccc12")
"> 100 µM"

====

System: OVCAR-8 ovarian
Test Summary: NCI tumour cell line growth inhibition, 48 h
Measure: TGI

>>> meas_value("O=C(O)CSc1n[nH]c(-c2ccco2)n1")
"> 100 µM"
>>> meas_value("COc1ccc2nc3ccc(OC)cc3c(SCCCl)c2c1")
"> 35.2 µM"
>>> meas_value("CCCCC1(C(NC(=O)c2ccccc2Cl)c2ccncc2)C(=O)N(c2ccccc2)N(c2ccccc2)C1=O (centres undefined)")
"> 100 µM"
>>> meas_value("C=C1C[C@@H]2O[C@H]3[C@H]4[C@@H](CC[C@@](C)(OC(=O)CCC)[C@H]42)[C@@H](C)C(=O)O[C@@]3(C)CC[C@H]1OO")
"51.6 µM"
>>> meas_value("O=C(O)CCCCC1CCSS1 (centres undefined)")
"> 100 µM"
>>> meas_value("COc1ccccc1C(=O)N(Cc1ccccc1)c1ccc(Cl)c(C(=O)OC(C)C)c1")
"> 100 µM"
>>> meas_value("COc1cc(NC2CCCCC2O)c2nc(-c3ccc(Cl)cc3)ccc2c1 (centres undefined)")
"> 100 µM"
>>> meas_value("COc1ccc2c(c1OC)O/C(=C\\c1ncc([N+](=O)[O-])n1C)C2=O")
"3.66 µM"
>>> meas_value("O=C(O)c1ccccc1NCn1c(=S)sc2ccccc21")
"> 100 µM"
>>> meas_value("O=CNc1ccccc1OCCOc1ccccc1NC=O")
"> 100 µM"
>>> meas_value("CC1OC(OC2C(O)C(O)C(O)C(O)C2O)C(N)CC1N=C(N)C(=O)O (centres undefined)")
"> 100 µM"
>>> meas_value("COc1cccc(/C=N\\NC(=O)C(C)SC(C)C(=O)N/N=C/c2cccc(OC)c2)c1 (centres undefined)")
"70 µM"
>>> meas_value("CN1CCC(C(O)(c2ccccc2)c2ccc(Br)cc2)CC1 (centres undefined)")
"> 100 µM"
>>> meas_value("O=C1Cc2cn[nH]c2-c2ccccc2N1")
"> 100 µM"
>>> meas_value("Nc1ccccc1C#Cc1ccccc1C#Cc1cccs1")
"> 100 µM"
>>> meas_value("C=C1C(=O)O[C@H]2C1C[C@H](O)[C@@]1(C)OC1CC[C@@]1(C)O[C@H]21 (some centres undefined)")
"39.6 µM"
>>> meas_value("Cc1cc(NS(=O)(=O)c2ccc(N=[N+]([O-])c3ccc(S(=O)(=O)Nc4cc(C)on4)cc3)cc2)no1")
"> 100 µM"
>>> meas_value("COc1ccc2nc3cc(Cl)ccc3c(NCCCN3CCN(CCCNc4ccc5nnn6c7ccccc7c(=O)c4c56)CC3)c2c1")
"> 25 µM"
>>> meas_value("Cc1[nH]c(-c2ccccc2)c2nc(N(C)C)oc(=O)c12")
"> 100 µM"
>>> meas_value("CC1(C)OC[C@@H]([C@@]2(COC(c3ccccc3)(c3ccccc3)c3ccccc3)CC=CC(=O)O2)O1")
"> 100 µM"
>>> meas_value("NC(=O)/C(=C/n1cnc(-c2cc(C(F)(F)F)cc(C(F)(F)F)c2)n1)c1cncnc1")
"18.2 µM"
>>> meas_value("CCOC(=O)C(=CNc1ccc(F)c(F)c1)C(=O)OCC")
"> 100 µM"
>>> meas_value("O=[N+]([O-])c1ccc(-c2nn3c(C45CC6CC(CC(C6)C4)C5)nnc3s2)c(Cl)c1")
"> 100 µM"
>>> meas_value("CC(=O)Nc1cccc(N2C(=O)/C(=C\\c3cccc(Oc4ccccc4)c3)SC2c2ccccc2)c1 (centres undefined)")
"> 100 µM"
>>> meas_value("C1CSCC2(COC2)CSCCSCC2(COC2)CS1")
"> 100 µM"
>>> meas_value("C=CC(=O)Nc1cc2c(Nc3ccc(F)c(Cl)c3)ncnc2cc1C#CC(C)(C)N1CCN(C)CC1")
"5.35 µM"
>>> meas_value("O=C1Nc2ccc3c(c2/C1=C\\c1cc2c(cc1Br)OCO2)OCO3")
"4.87 µM"
>>> meas_value("COc1cc2c3c(n(CCCNCCCNCCCN)c(=O)c2cc1OC)-c1cc2c(cc1C3=O)OCO2")
"> 100 µM"
>>> meas_value("CCCCOC/N=C(/N)NC#N")
"> 100 µM"

====

Tested on: A498 renal
Test Summary: NCI tumour cell line growth inhibition, 48 h
Measure: GI50

>>> meas_value("Nc1nccc2c([N+](=O)[O-])cccc12")
"31.7 mg/L"
>>> meas_value("COc1ccc(-c2cc(/C=C/C(=O)c3ccc(N)cc3)[nH]n2)cc1")
"2.03 µM"
>>> meas_value("COc1ccc(/C=C/C(=O)c2cc3c(N)c(C(=O)Nc4ccc(OC)cc4)sc3nc2C)cc1")
"0.108 µM"
>>> meas_value("CCCCCC[C@H]1C(=O)O[C@H](C)[C@H](NC(=O)c2cccc(NC=O)c2OC)C(=O)O[C@@H](C)[C@@H]1OC(=O)CCC (tested in a mixture with another compound)")
"10 µM"
>>> meas_value("COc1ccc2c(c1)C(=O)c1c-2c(OCCN(C)C)nc2cc(OC)c(OC)cc12")
"13.2 µM"
>>> meas_value("COc1ccc2c(c1OC)O/C(=C\\c1ncc([N+](=O)[O-])n1C)C2=O")
"3.32 µM"
>>> meas_value("CC(=O)Oc1cc2cnc3c4cc(OC(C)=O)c(OC(C)=O)cc4ccc3c2cc1OC(C)=O")
"0.443 µM"

====

Tested on: SR leukemia
Test Summary: NCI tumour cell line growth inhibition, 48 h; in the data active means GI50 below about 0.43 µM; inactive means the rest
Outcomes: active, inactive

>>> class_assignment("NCCCN=c1ccc2c3c1c(O)c1c(O)ccc(=O)c1c3[nH]n2CCNCCO")
"active"
>>> class_assignment("CN1CC[C@H](c2c(O)cc(O)c3c(=O)cc(-c4ccccc4Cl)oc23)[C@H](O)C1")
"active"
>>> class_assignment("CC[C@H]1OC(=O)[C@H](C)[C@@H](O[C@H]2C[C@@](C)(OC)[C@@H](O)[C@H](C)O2)[C@H](C)[C@@H](O[C@@H]2O[C@H](C)C[C@H](N(C)C)[C@H]2O)[C@](C)(OC)C/C(C)=C2/O[C@@]1(C)C=C2C")
"inactive"
>>> class_assignment("CCCCCC[C@H]1C(=O)O[C@H](C)[C@H](NC(=O)c2cccc(NC=O)c2OC)C(=O)O[C@@H](C)[C@@H]1OC(=O)CCC (tested in a mixture with another compound)")
"inactive"
>>> class_assignment("Nc1nccc2c([N+](=O)[O-])cccc12")
"inactive"
>>> class_assignment("CCOC(=O)/C(=C\\c1ccc2ccccc2c1)P(=O)(OCC)OCC")
"inactive"
>>> class_assignment("NC(=O)/C(=C/n1cnc(-c2cc(C(F)(F)F)cc(C(F)(F)F)c2)n1)c1cncnc1")
"active"

====

Test system: SW-620 colon
Test Summary: NCI tumour cell line growth inhibition, 48 h
Measure: TGI

>>> meas_value("C[C@@H]1CC[C@H]2[C@H](C)C(OC3O[C@@H]4O[C@@]5(C)CC[C@H]6[C@H](C)CC[C@@H]([C@@H]3C)[C@@]46O5)O[C@@H]3O[C@@]4(C)CC[C@@H]1[C@]32O4 (stereo partly specified)")
"> 100 µM"
>>> meas_value("Nc1ncc2ncn(C3CCC(CO)O3)c2n1 (stereo unspecified)")
"> 100 µM"
>>> meas_value("O=C1OC(=O)C([Se]c2ccccc2)=C1[Se]c1ccccc1")
"> 100 µM"
>>> meas_value("Nc1ccccc1C#Cc1ccccc1C#Cc1cccs1")
"41.1 µM"
>>> meas_value("OCCN(CO)CO")
"> 100 µM"
>>> meas_value("NC(=O)/C(=C/n1cnc(-c2cc(C(F)(F)F)cc(C(F)(F)F)c2)n1)c1cncnc1")
"7.03 µM"
>>> meas_value("N#[N+]c1ccc(Nc2ccccc2)cc1")
"> 50 µg/mL"
>>> meas_value("O=[N+]1[C@H](c2ccccc2)[C@H](c2ccccc2)N1[O-]")
"28.2 µM"
>>> meas_value("C[C@H]1CC[P+](C)(c2ccccc2)C1 (stereo partly specified)")
"> 100 µM"
>>> meas_value("Cc1ccc(-c2cn3c(nc4ccccc43)c(/C=C/c3ccco3)n2)cc1")
"> 100 µM"
>>> meas_value("CCOC(=O)[C@@H]1CSC(CC)=C(C(=O)O)N1")
"> 100 µM"
